- system: T1, Sec8-His (section 8 (Sec8), an antigenic region of CSP-1, tagged with a polyhistidine (His) tag)
- T1 construct: also called Sec8-His antigen
- T1 chain: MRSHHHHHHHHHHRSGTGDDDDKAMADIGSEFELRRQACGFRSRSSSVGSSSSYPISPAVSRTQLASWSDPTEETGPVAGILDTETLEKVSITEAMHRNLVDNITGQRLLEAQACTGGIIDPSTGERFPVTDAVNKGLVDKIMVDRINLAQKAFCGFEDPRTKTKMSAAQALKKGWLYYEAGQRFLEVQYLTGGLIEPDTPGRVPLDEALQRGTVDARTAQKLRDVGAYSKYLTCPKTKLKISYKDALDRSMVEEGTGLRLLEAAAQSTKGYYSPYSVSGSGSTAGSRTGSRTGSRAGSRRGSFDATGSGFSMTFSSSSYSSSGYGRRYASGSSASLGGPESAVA
- test: BLI (Octet), single shot: antibody on anti-human IgG tips, 24 nM Sec8-His
readout_name: binding result

Item humanized anti-CSP-1 antibody, Antibody Number 31 (Table 1) (antibody, human IgG1, V domains shown, also called Antibody 31) VH: EVQLVESGGGLVQPGGSLRLSCAASGFTFSRYGMSWVRQAPGKRLEWVATISIGGTYTYYPDSMKGRFTISRDNSKNTLYLQMNSLRAEDTAMYYCARRGYGNYSYYGMDYWGQGTLVTVSS VL: DIVMTQAAFSNPVTLGTSASISCRSSKSLLHSNGITYLYWYLQKPGQSPQLLIYQMSNLASGVPDRFSSSGSGTDFTLRISRVEAEDVGVYYCAQNLELPLTFGAGTKLELK has what recorded binding result?
binds

Requested field: binding result. Item: humanized anti-CSP-1 antibody, Antibody Number 14 (Table 1) (antibody, human IgG1, V domains shown, also called Antibody 14) VH: QIQLVQSGPGLKQPGGSVRISCAASGYTFTDYSMHWVKQAPGKGLKWMGWINTETGEPTYADDFKGRFTFSLDTSKSTAYLQINSLRAEDTATYFCAPGGFAYWGQGTLVTVSS VL: DIVMTQSAPSVPVTPGQSVSISCRSSKSLLHSNGNTYLYWFLQKPGQSPQLLIYRMSNRASGVPDRFSGSGSGTDFTLKISRVEAEDVGVYYCMQHLEYPLTFGQGTKLEIK
binds
